All values here come from PubChem BioAssay AID248.

Kindly state T/C for each of the entries shown.
# Test system: L1210 leukemia ip in BDF1 mice, survival T/C
# Assay Summary: NCI In Vivo Anticancer Drug Screen. Data for tumor model L1210 Leukemia (intraperitoneal) in B6D2F1 (BDF1) mice
# Condition Parameters: endpoint: mean survival time; dose: 400.0 mg/kg/injection; schedule: Q01DX009 (ip); vehicle: Klucel (hydroxypropylcellulose) (HPC); higher = longer survival
Inconclusive results and toxic doses are left out.

Any idea what T/C was measured for O=C1CCOc2ccc3ccccc3c21 ? 111 % of control

Any idea what T/C was measured for CC(=O)Nc1ccc(/C=C(\C#N)c2cccc3ccccc23)cc1 ? 88 % of control

Any idea what T/C was measured for O=C(O)/C(=C\c1ccc([N+](=O)[O-])cc1)CCc1ccccc1 ? 92 % of control

Any idea what T/C was measured for FC(F)(F)c1cccc(NC(=S)NCc2ccco2)c1 ? 96 % of control

Any idea what T/C was measured for COC(=O)c1ccccc1NC(=S)NC(=O)/C=C/c1ccccc1 ? 106 % of control

Any idea what T/C was measured for CCCCCCCCCCCCCCCCCCCC/C=C/C1CC(=O)OC1=O (configuration not stated) ? 96 % of control

Any idea what T/C was measured for CCCCCCCCCCCCCCCCCOC(=O)CCCCCCCCCCCCC ? 98 % of control

----------
# System: L1210 leukemia ip in BDF1 mice, survival T/C
# Assay Summary: NCI In Vivo Anticancer Drug Screen. Data for tumor model L1210 Leukemia (intraperitoneal) in B6D2F1 (BDF1) mice
# Condition Parameters: endpoint: mean survival time; dose: 200.0 mg/kg/injection; schedule: Q01DX009 (ip); vehicle: saline; higher = longer survival
Inconclusive results and toxic doses are left out.
Kindly state T/C for each of the entries shown.

Any idea what T/C was measured for COc1cc2cc(-c3cc(OC)c(OC)c(OC)c3)c3c(c2cc1OC)CNC3=O ? 90 % of control

Any idea what T/C was measured for O=C1CNC(=O)N1 ? 96 % of control

Any idea what T/C was measured for CC(=O)Nc1ccc(CCCCc2cccc(C#N)c2)cc1 ? 97 % of control

Any idea what T/C was measured for COc1ccc(N=C(N)N=C(N)N)cc1 ? 92 % of control

Any idea what T/C was measured for CC(=O)ONc1nc(C)c(CCC2OCCO2)c(SC(=N)N)n1 ? 113 % of control

Any idea what T/C was measured for COc1ccc(OC)c2c1C(=O)CC2C (stereo unspecified) ? 96 % of control

----------
# System: L1210 leukemia ip in BDF1 mice, survival T/C
# Assay Summary: NCI In Vivo Anticancer Drug Screen. Data for tumor model L1210 Leukemia (intraperitoneal) in B6D2F1 (BDF1) mice
# Condition Parameters: endpoint: mean survival time; dose: 150.0 mg/kg/injection; schedule: Q01DX001 (ip); vehicle: saline; higher = longer survival
Inconclusive results and toxic doses are left out.
Assay Endpoint: T/C

Any idea what T/C was measured for C/C=C1\CCCCN(Cc2ccccc2)CCC1 ? 98 % of control

Any idea what T/C was measured for CNC(CO)C1CCCCC1 (stereo not given) ? 102 % of control

Any idea what T/C was measured for Cc1cc2c(cc1C)N(C(=O)CN1CCSCC1)CC(=O)N2 ? 98 % of control

Any idea what T/C was measured for CC(O)(C(=O)O)c1ccccc1O (stereo not given) ? 96 % of control

Any idea what T/C was measured for COC1=C(Br)[C@H](O)[C@](O)(CC#N)C=C1Br ? 121 % of control
